Reference source: patent US20160176930A1

targetOrTestSystem: T1, human delta opioid receptor (human, UniProt P41143 1-372)
T1 construct: whole, on cells; Assays were done on membranes of CHO cells expressing the cloned human receptor; also called DOR; delta receptor
T1 sequence (P41143 whole entry, stated change not applied): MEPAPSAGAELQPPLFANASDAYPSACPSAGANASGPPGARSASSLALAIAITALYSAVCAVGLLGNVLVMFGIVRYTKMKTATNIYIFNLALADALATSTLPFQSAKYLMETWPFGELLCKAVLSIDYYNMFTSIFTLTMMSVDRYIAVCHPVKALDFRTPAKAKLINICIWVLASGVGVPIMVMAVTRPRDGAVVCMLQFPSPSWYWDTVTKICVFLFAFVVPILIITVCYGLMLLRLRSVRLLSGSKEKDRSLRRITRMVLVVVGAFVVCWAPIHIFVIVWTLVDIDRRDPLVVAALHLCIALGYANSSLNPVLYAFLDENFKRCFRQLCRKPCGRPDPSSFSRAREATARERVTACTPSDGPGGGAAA
methodNotes: radioligand competition vs 3H-DPDPE, membranes of CHO cells expressing cloned human delta receptor
Positions of bridges follow the written chain, without caps; N, C: chain ends. Non-standard residues stand in square brackets, D forms with d. No end group written: not given here.
measuredQuantity: Ki (µM)
Just the number in µM, nothing appended.

Return reported Ki. Input binder: Y[dK]WFE-NH2 (lactam 2-5; N-terminus assumed; SMILES NC(=O)[C@@H]1CCC(=O)NCCCC[C@@H](NC(=O)[C@@H](N)Cc2ccc(O)cc2)C(=O)N[C@@H](Cc2c[nH]c3ccccc23)C(=O)N[C@@H](Cc2ccccc2)C(=O)N1, Cyclic pentapeptide analog of endomorphin-1; also called Compound 1; Comp) [Tyr-c[D-Lys-Trp-Phe-Glu]-NH2]
0.132

Return reported Ki. Input binder: Y[dK]WFD-NH2 (lactam 2-5; N-terminus assumed; SMILES NC(=O)[C@@H]1CC(=O)NCCCC[C@@H](NC(=O)[C@@H](N)Cc2ccc(O)cc2)C(=O)N[C@@H](Cc2c[nH]c3ccccc23)C(=O)N[C@@H](Cc2ccccc2)C(=O)N1, also called Compound 5; Comp) [Tyr-c[D-Lys-Trp-Phe-Asp]-NH2]
0.14

Return reported Ki. Input binder: Y[dE]FFK-NH2 (lactam 2-5; N-terminus assumed; SMILES NC(=O)[C@@H]1CCCCNC(=O)CC[C@@H](NC(=O)[C@@H](N)Cc2ccc(O)cc2)C(=O)N[C@@H](Cc2ccccc2)C(=O)N[C@@H](Cc2ccccc2)C(=O)N1, Cyclic pentapeptide analog of endomorphin-2; also called Compound 2; Comp) [Tyr-c[D-Glu-Phe-Phe-Lys]-NH2]
0.069
